Value source: patent US20240317871A1

Quick reference for pKd among some binders
studyTarget: T1, His-tagged human HVEM (human, UniProt Q92956 39-202, limits assumed)
T1 construct: Analyte of the BLI assay, 200 nM in PBS; not shown: His tag
T1 sequence (looked up): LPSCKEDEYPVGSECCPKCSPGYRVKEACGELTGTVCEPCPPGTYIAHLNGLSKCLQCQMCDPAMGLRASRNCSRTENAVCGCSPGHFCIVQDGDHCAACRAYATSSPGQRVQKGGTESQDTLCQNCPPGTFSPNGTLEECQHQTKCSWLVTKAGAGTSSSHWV
testDetails: BLI OctetRed96, mAb captured, 200 nM His-HVEM
In simple prose, pKd is minus the logarithm base ten of a concentration in moles per litre.

Just so you know, measured pKd for Ab_025 (H5S15-2A2A) (antibody, V domains shown, also called Ab_25) VH: EVQLQQSGAELVKPGASVKLSCTASGFNIKDTYMHWVKQRPEQGLEWIGRIDPANDNTKYDPKFQGKATITADTSSNTAYLQLSSLTSEDTAVYYCARVYYAMDYWGQGTSVTVSS VL: DIQMTQSPASLSASVGETVTITCRASENIYSYLAWYQQKQGKSPQLLVYNAKTLAEGVPSRFSGSGSGTQFSLKINSLQPEDFGSYYCQHHYGTYTFGGGTKLEIK came out at 7.94

GET /value?item= Ab_036 (H5S15-12A13A) (antibody, V domains shown, also called Ab_36) VH: EVQLQQSGAELVKPGASVKLSCTASGFNIKDTYMHWVKQRPEQGLEWIGRIDPANGNTKFDPKFQGKATITADTSSNTAYLQLSSLTSEDTAVYYCASRGGSSFDYWGQGTTLTVSS VL: DIVLTQSPASLAVSLGQRATISCKASQSVDYDGESYMNWYQQKPGQPPKLLIYAASNLDSGIPARFSGSGSGTDFTLNIHPVEEEDAATYYCQQSNEDPLTFGAGTKLELK &field=pKd returns 7.73

The binder identified as Ab_051 (H5S19-4A6A) (antibody, V domains shown, also called Ab_51) VH: QVQLKESGPGLVAPSQSLSITCTVSGFSLTGYGVNWVRQPPGKGLEWLGMIWGDGNTDYNSALKSRLSISKDNSKSQVFLKMNSLQTDDTARYYCARSYGSYWGQGTLVTVSA VL: QIVLTQSPAIMSASPGEKVTMTCSASSSVSYMYWYQQKPGSSPRLLIYDTSNLASGVPVRFSGSGSGTSYSLTISRMEAEDAATYYCQQWSSYPFTFGSGTKLEIK registered its pKd at 7.54
